meta.source: patent US20260274892A1

# Test system: Escherichia coli ATCC 25922
# measurement description: Minimum inhibitory concentration (MIC), CLSI broth micro-dilution, E. coli
# Assay type: cell-based
# experimental setup: Escherichia coli, ATCC25922, 22 h, Table 7, cation adjusted Mueller Hinton Broth + 0.002% Tween-80, 35° C.
measured parameter: MIC (µM)

CCCCCOc1ccc(-c2nc(C)c(C(=O)N[C@@H](CCN)C(=O)N(C)[C@@H]3C(=O)N[C@@H](C)C(=O)N[C@H](C(=O)NCC#N)Cc4ccc(O)c(c4)-c4cc3ccc4OCCCN)c(C)n2)cc1 (racemic) :: 0.094
Cc1nc(-c2ccc(C(C)(C)C)cc2)nc(C)c1C(=O)N[C@@H](CCN)C(=O)N(C)[C@@H]1C(=O)N[C@@H](C)C(=O)N[C@H](C(=O)NCC#N)Cc2ccc(OC(C)CN)c(c2)-c2cc1ccc2O (mixture of isomers) :: 0.5
Cc1nc(-c2ccc(OC3CCCCC3)cc2)nc(C)c1C(=O)N[C@@H](CNS(N)(=O)=O)C(=O)N(C)[C@@H]1C(=O)N[C@@H](C)C(=O)N[C@H](C(=O)NCC#N)Cc2ccc(OCCN)c(c2)-c2cc1ccc2O (racemic) :: 0.5
COc1c(OC[C@H](O)CN)cc2cc1-c1cc(ccc1OC[C@H](O)CN)C[C@@H](C(=O)NCC#N)NC(=O)[C@H](C)NC(=O)[C@H]2N(C)C(=O)[C@H](CCN)NC(=O)c1c(C)nc(-c2ccc(C(C)(C)C)cc2)nc1C (racemic) :: 0.19
Cc1nc(-c2ccc(C(C)(C)C)cc2)nc(C)c1C(=O)N[C@@H](CCN)C(=O)N(C)[C@@H]1C(=O)N[C@@H](C)C(=O)N[C@H](C(=O)NCC#N)Cc2ccc(O)c(c2)-c2cc1ccc2OCCNC(=N)N (racemic) :: 0.33
Cc1nc(-c2ccc(C(C)(C)C)cc2)nc(C)c1C(=O)N[C@@H](CCN)C(=O)N(C)[C@@H]1C(=O)N[C@@H](C)C(=O)N[C@H](C(=O)NCC#N)Cc2ccc(OC[C@H](O)CN)c(c2)-c2cc1cc(OCCN)c2O (racemic) :: 0.094

I: COc1c(OC[C@H](O)CN)cc2cc1-c1cc(cc(OC[C@H](O)CN)c1OC)[C@H](N(C)C(=O)[C@H](CCN)NC(=O)c1c(C)nc(-c3ccc(C(C)(C)C)cc3)nc1C)C(=O)N[C@@H](C)C(=O)N[C@H](C(=O)NCC#N)C2 (racemic)
II: Cc1nc(-c2ccc(C(C)(C)C)cc2)nc(C)c1C(=O)N[C@@H](CCN)C(=O)N(C)[C@@H]1C(=O)N[C@@H](C)C(=O)N[C@H](C(=O)NCC#N)Cc2ccc(OCCN)c(c2)-c2cc1cc(OC[C@H](O)CN)c2O (racemic)
III: CC(=O)Nc1cc2cc(c1O)-c1cc(ccc1OCCN)[C@H](N(C)C(=O)[C@H](CCN)NC(=O)c1c(C)nc(-c3ccc(C(C)(C)C)cc3)nc1C)C(=O)N[C@@H](C)C(=O)N[C@H](C(=O)NCC#N)C2
IV: COc1c(OC[C@H](O)CN)cc2cc1-c1cc(cc(OC[C@H](O)CN)c1OC)[C@H](N(C)C(=O)[C@H](CNS(N)(=O)=O)NC(=O)c1c(C)nc(-c3ccc(C(C)(C)C)cc3)nc1C)C(=O)N[C@@H](C)C(=O)N[C@H](C(=O)NCC#N)C2 (racemic)
V: Cc1nc(-c2ccc(C(C)(C)C)cc2)nc(C)c1C(=O)N[C@@H](CCN)C(=O)N(C)[C@@H]1C(=O)N[C@@H](C)C(=O)N[C@H](C(=O)NCC#N)Cc2ccc(OC[C@@H](N)CO)c(c2)-c2cc1ccc2O (racemic)
Task: Could you please sort these 5 entries by MIC from high to low? Return value: ordered labels per request.
Result: IV, V, III, I, II

1: Cc1nc(-c2ccc(C(C)(C)C)cc2)nc(C)c1C(=O)N[C@@H](CCN)C(=O)N(C)[C@@H]1C(=O)N[C@@H](C)C(=O)N[C@H](C(=O)NCC#N)Cc2ccc(OCCCN)c(c2)-c2cc1ccc2O (racemic)
2: Cc1nc(-c2ccc(C(C)(C)C)cc2)nc(C)c1C(=O)N[C@@H](CCN)C(=O)N(C)[C@@H]1C(=O)N[C@@H](C)C(=O)N[C@H](C(=O)NCC#N)Cc2ccc(O)c(c2)-c2cc1cc(OCCN)c2O
Task: Which value of MIC is numerically greater: that of 1 or that of 2 ? Answer by quoting the chosen item's label.
Result: 2
